Listed here are molecules together with their documented DR/DR SA.
- Measurement Description: Probe fluorescence ratio response to stearic acid relative to ADIFAB2
- Assay type: binding
- Condition Set: response relative to ADIFAB2
- From the text: In an alternate preferred embodiment, the protein is rI-FABP that has Ala substituted for Leu at position 72 (rI-FABP-L72A) with the resulting probe named ADIFAB2. […] ADIFAB2 also has an altered spectral response, making it especially useful for measurements of FFAu in blood samples (Apple et al, Clinical Proteomics, (2004) 1:41-44, U.S. patent application Ser. No. 10/670,958). […] The baseline value for this ratio, measured in the absence of analyte, is designated R0. […]
Lab note: jot down the number only; don't add units.

Answered examples (2):
**Query** What does the data say about its DR/DR SA? Entry: 72T 73W 74G (protein, listed as Rattus norvegicus, PEPTIDE (1)...(131) wild-type rat intestinal fatty acid binding protein) AFDGTWKVDRNENYEKFMEKMGINVVKRKLGAHDNLKLTITQEGNKFTVKESSNFRNIDVVFELGVDFAYSTWGGTELTGTWTMEGNKLVGKFKRVDNGKELIAVREISGNELIQTYTYEGVEAKRIFKKE
**Result** 0.305

**Query** # query: DR/DR SA of entry 18I 55G 73M 72A (protein, listed as Rattus norvegicus, PEPTIDE (1)...(131) wild-type rat intestinal fatty acid binding protein) AFDGTWKVDRNENYEKFIEKMGINVVKRKLGAHDNLKLTITQEGNKFTVKESSNGRNIDVVFELGVDFAYSAMDGTELTGTWTMEGNKLVGKFKRVDNGKELIAVREISGNELIQTYTYEGVEAKRIFKKE
**Result** 0.360

New cases:
**Query** For the molecule 72A 73P 74E (protein, listed as Rattus norvegicus, PEPTIDE (1)...(131) wild-type rat intestinal fatty acid binding protein) AFDGTWKVDRNENYEKFMEKMGINVVKRKLGAHDNLKLTITQEGNKFTVKESSNFRNIDVVFELGVDFAYSAPEGTELTGTWTMEGNKLVGKFKRVDNGKELIAVREISGNELIQTYTYEGVEAKRIFKKE , what DR/DR SA is on record?
**Result** 1.512

**Query** DR/DR SA for 72T 73V 74S (protein, listed as Rattus norvegicus, PEPTIDE (1)...(131) wild-type rat intestinal fatty acid binding protein) AFDGTWKVDRNENYEKFMEKMGINVVKRKLGAHDNLKLTITQEGNKFTVKESSNFRNIDVVFELGVDFAYSTVSGTELTGTWTMEGNKLVGKFKRVDNGKELIAVREISGNELIQTYTYEGVEAKRIFKKE ?
**Result** 2.195

**Query** Return reported DR/DR SA; argument: 14Q 18L 31A 73W 117V 72A (protein, listed as Rattus norvegicus, PEPTIDE (1)...(131) wild-type rat intestinal fatty acid binding protein) AFDGTWKVDRNENQEKFLEKMGINVVKRKLAAHDNLKLTITQEGNKFTVKESSNFRNIDVVFELGVDFAYSAWDGTELTGTWTMEGNKLVGKFKRVDNGKELIAVREISGNELIQTVTYEGVEAKRIFKKE
**Result** 0.384
